The reported measurements were obtained from the supplement of paper PMC6555819.

Test system: LXRb homodimer (NR concentration 270 nM)
Assay: PBM binding z-score (relative to random genomic background probes); higher = stronger binding; sequences stand for … in GC…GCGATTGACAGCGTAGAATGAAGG
# binarize PBM binding z-score: threshold -0.2 inclusive, high side yes, low side no

Observe how each entry below is paired with its result.
INSERT INTO results (sequence_text, class_label) VALUES
  ('GCTGCTGGGTCAGGTTGGTCAGCTAACGGGTACG', 'no'),
  ('TGTCAAAGTTTAAAGGTAACGTAAGTATCCACAC', 'yes'),
  ('CAAACTAGGCCACCGGAAGGTCAAAGTCCGCATG', 'yes'),
  ('TCTGCTAGGTCAACGATGATCAGCTAATCTGCTA', 'no'),
  ('TAGCCTAGGTCATGCGGGCCTGTATAGTGTCGGC', 'no');

stdin: Exam item: decide whether the reported PBM binding z-score for CGTCCAAGGTCATAGGAGGTCAGCGAAGACAGAT is at least -0.2.
stdout: yes

stdin: Exam item: decide whether the reported PBM binding z-score for GGAACGAGAGCATTCGAGTTGATAGCATGGCGAT is at least -0.2.
stdout: no

stdin: Exam item: decide whether the reported PBM binding z-score for ATCTCTAGGTACAGTTCAGTGAAAGATCGATAGA is at least -0.2.
stdout: yes

stdin: Exam item: decide whether the reported PBM binding z-score for ATCGCAAGGTCGACGAGGTGAGTATACACCGTTT is at least -0.2.
stdout: no

stdin: Exam item: decide whether the reported PBM binding z-score for CGAACGAGGGCATGAGTGGATAGCAAATGCCGAT is at least -0.2.
stdout: no

stdin: Exam item: decide whether the reported PBM binding z-score for TCTAGCAGGCCACAGGGTCACTCAAGAGGTACGG is at least -0.2.
stdout: no

###

Test system: PPARg homodimer (NR concentration 180 nM)
Assay: PBM binding z-score (relative to random genomic background probes); higher = stronger binding; sequences stand for … in GC…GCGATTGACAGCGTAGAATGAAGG
So I've got a bunch of sequences here, and I need their PBM binding z-score values.

Could I get PBM binding z-score for every one of these entries?
1. ATATGTAGGTTAAGGGTAATTCAGGTTGGTTCGC
2. CCTTACGGGTCACTCCAGGCTATAGCATCGGAGT

stdout:
1: 2.15; 2: 0.988

###

Test system: LXRb homodimer (NR concentration 270 nM)
Experiment: PBM binding z-score (relative to random genomic background probes); higher = stronger binding; sequences stand for … in GC…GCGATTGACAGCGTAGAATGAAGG
# binarize PBM binding z-score: threshold -0.2 inclusive, high side 1 (yes), low side 0 (no)

INSERT INTO measurements (sequence_text, class_label) VALUES
  ('TAGCCTAGATCATTGGGCCAGTATAGTACGCATC', '0 (no)'),
  ('GGAACGAGGGCATTCTAGTTGATAGCATGGCGAT', '1 (yes)'),
  ('GCAGACAGGTGAGACGCAGGTAACTCAGGGTGGC', '0 (no)'),
  ('TCATATAGGTAAAGGGTGAAAGTCGGTGTGGTAA', '1 (yes)'),
  ('TTACCAAGGTGAGCTGAGGTGGTTGATCCAACTC', '0 (no)'),
  ('TAGCCTAGGTCATGCTGGCCAGTATAGTGTCGGC', '0 (no)');

stdin: Exam item: decide whether the reported PBM binding z-score for CCGACTGGGGCAGGGTTACCATAACGCACAGCCA is at least -0.2.
stdout: 0 (no)

stdin: Exam item: decide whether the reported PBM binding z-score for CCTCGGAGGGCAACAGGAGGTCAGAGCTGCCAGA is at least -0.2.
stdout: 0 (no)

stdin: Exam item: decide whether the reported PBM binding z-score for CCAGACAGGTAAAAGGTAACTCAGTCTGGTACGC is at least -0.2.
stdout: 0 (no)

stdin: Exam item: decide whether the reported PBM binding z-score for TCAAATAGGTAAATGCTAGGTGAAAGTCCGATCT is at least -0.2.
stdout: 0 (no)

stdin: Exam item: decide whether the reported PBM binding z-score for TCATGTAGGTAAAGGTGAAAGTCGAACGATATGA is at least -0.2.
stdout: 0 (no)
